Ref: PubChem BioAssay (NCI)

System: CCRF-CEM leukemia
Experiment: NCI-60 one-dose screen, 48 h
Settings: 10 µM unless noted
This is part of a sample that, as a whole, favours compounds with a hit. Of some 83,000 tested, about 20% had one in any assay. Active and inactive are the calls of the source. How the source made its calls: active means growth percent below 10; inactive means the rest.
Just give me one of these, please: active, inactive

Solved entries:
[
  {
    "molecule": "COc1cc2c(cc1-c1c(C)noc1C)ncc1nc(C3CC3)n([C@H](C)COC(F)F)c12",
    "group.label": "inactive"
  },
  {
    "molecule": "CCCCCCCCNc1cccc2c1C(=O)c1ccccc1C2=O",
    "group.label": "inactive"
  },
  {
    "molecule": "COc1ccc(C(=O)c2ccc(C)cc2)c(OC)c1OC",
    "group.label": "inactive"
  },
  {
    "molecule": "O=C(CCCCCn1c2ccccc2c2c3c(c4c5ccccc5[nH]c4c21)C(=O)N(O)C3=O)N1CCOCC1",
    "group.label": "active"
  },
  {
    "molecule": "CC/C(=N/NC(N)=O)c1ccccc1",
    "group.label": "inactive"
  }
]

What was the test verdict on c1ccc(C2Cc3ccccc3C2=NC2CCCCC2)cc1 (stereo unspecified) ?
inactive

What was the test verdict on `Cn1cc(-c2csc(-c3cn(CCNC(=O)OC(C)(C)C)c4ccccc34)n2)c2cccnc21` ?
inactive

What was the test verdict on Cc1ccc(-c2nc3ccc(Cl)cc3c(=O)n2N2C(=O)CSC2c2ccccc2Cl)cc1 (stereo unspecified) ?
inactive
